test system: SW-620 colon; assay: NCI tumour cell line growth inhibition, 48 h
Peptide text beside a SMILES is read from it. * marks the point of attachment. X34 = O=C(c1ccc(-c2ccc(Cl)cc2Cl)o1)*
value-type: TGI

compound	target-or-system	result
CC(=O)NCc1c(C(N)=O)ncn1Cc1ccccc1	SW-620 colon	> 100 µM
N#CC1(C#N)[C@@H]2CCC=C(Sc3ccccc3)[C@@H]21	SW-620 colon	26 µM
CC1SC2=NC3=C(c4ccccc4C3=O)C(c3ccccc3Cl)N2C1=O (stereo not given)	SW-620 colon	> 100 µM
CC[O-].CC[O-].O=C([CH-]C(=O)c1ccccc1)CCCCCCC(=O)[CH-]C(=O)c1ccccc1.[Ti+4]	SW-620 colon	> 100 µM
CCc1ccc(Cc2ccc(CC)c(NC(=O)C(=O)C3NC(=S)NC3=O)c2CC)c(CC)c1NC(=O)C(=O)C1NC(=S)NC1=O (stereo not given)	SW-620 colon	> 100 µM
C#CC(C)(C)OCCCCOc1cc(O)c2c(=O)c3ccccc3n(C)c2c1	SW-620 colon	> 100 µM
CCOC(=O)c1c(-c2ccc(OC)c(O)c2)c(C#N)c(=S)n(C2OC(COC(C)=O)C(OC(C)=O)C(OC(C)=O)C2OC(C)=O)c1-c1ccccc1 (stereo not given)	SW-620 colon	> 100 µM
CS(=O)(=O)NNS(=O)(=O)c1ccc(F)cc1	SW-620 colon	> 100 µM
CC(=O)C1C(=O)C(C(C)=O)C2C3C=CC(C3)C12 (stereo not given)	SW-620 colon	> 100 µM
COc1cc(NS(C)(=O)=O)ccc1Cc1c2ccccc2nc2ccccc12	SW-620 colon	2.34 µM
O=[N+]([O-])c1cccc(C2=NN(c3ccccc3)C3c4ccccc4OCC23)c1 (stereo not given)	SW-620 colon	> 100 µM
O=S1(=O)c2cc(S(=O)(=O)n3ccnc3)ccc2NC2=NCCCN21	SW-620 colon	73.8 µM
Cc1[nH]c2ccccc2c1C1=NO/C(=N\O)C(c2c(C)[nH]c3ccccc23)C1 (stereo not given)	SW-620 colon	> 100 µM
C#Cc1cccc(NC(=O)c2cccc(NC(=O)CCl)c2)c1	SW-620 colon	17 µM
C/C=C\C(CC(=O)NCCC1CN(C(=O)OCc2ccccc2)c2ccccc21)CC(=O)OC (stereo not given)	SW-620 colon	> 100 µM
COc1ccc(CNCCCN2C(=O)c3ccc4c5c(ccc(c35)C2=O)C(=O)N(CCCNCc2ccc(OC)c(OC)c2OC)C4=O)c(OC)c1OC	SW-620 colon	0.225 µM
CCc1[nH]nc(C(N)=O)c1N=NN(C)C	SW-620 colon	> 100 µM
CCN(CC)CCn1c(=O)c2cc(OC)c(OC)cc2c2ccc3cc4c(cc3c21)OCO4	SW-620 colon	23.2 µM
O=C(C=Nc1ccccc1S)c1ccco1	SW-620 colon	32.8 µM
CC12C3CC4C5CC(C(C53)[C@@H]1NCc1ccccc1)C42 (stereo not given in full)	SW-620 colon	> 100 µM
CC(=O)OCC1=CC2OC(=O)C3=COC(OC4OC(CO)C(O)C(O)C4O)C1C32 (stereo not given)	SW-620 colon	> 100 µM
O=C(c1ccccc1)N(CCCCNC(=O)C(F)(F)F)CCCNC(=O)C(F)(F)F	SW-620 colon	> 100 µM
COc1ccc(/C=C2/SC(=Nc3ccccc3)N(NC(=O)Cc3ccccc3)C2=O)c(OC)c1	SW-620 colon	> 100 µM
CCCCC(OC(=O)c1ccc(N)cc1)C(=O)Nc1nc(CC(=O)OCC)cs1 (stereo not given)	SW-620 colon	> 100 µM
Cc1cn(C2CC(N=[N+]=[N-])C(CO)O2)c(=O)n(CCCCBr)c1=O (stereo not given)	SW-620 colon	> 100 µM
CCN(CCO)CCCC(C)Nc1ccnc2cc(Cl)ccc12 (stereo not given)	SW-620 colon	> 100 µM
O=C(O)CCSC(=O)Nc1cccc2ccccc12	SW-620 colon	> 100 µM
CN1c2c(nc(N)[nH]c2=O)NCC1CCNc1ccc(C(=O)NC(CCC(=O)O)C(=O)O)cc1 (stereo not given)	SW-620 colon	1810 µM
N#CC(C(=O)CCC(=O)Nc1cccc(C(F)(F)F)c1)c1ccccc1 (stereo not given)	SW-620 colon	> 100 µM
O=C(O[C@H]1[C@@H]2C=CO[C@@H](OC3OC(CO)C(O)C(O)C3O)[C@@H]2[C@@]2(CO)O[C@@H]12)c1ccc(O)c(O)c1 (stereo not given in full)	SW-620 colon	> 100 µM
COc1cc2c(/C=C3/C(=O)Nc4ccc(O)cc43)c(Cl)n(Cc3cc(OC)c(OC)c(OC)c3)c2cc1C	SW-620 colon	> 100 µM
COC(=O)C(CC(C)C)NC(=O)C(Cc1ccccc1)NC(=O)C1CCCN1C(=O)C(CO)NC(=O)c1ccc(-c2ccc(Cl)cc2Cl)o1 (stereo not given) (X34-SPFL-OMe; configuration not given here)	SW-620 colon	> 100 µM
O=C1NC(=O)C(C(c2ccc([N+](=O)[O-])cc2)C2C(=O)NC(=O)NC2=O)C(=O)N1	SW-620 colon	> 100 µM
[Co].[O-]c1cccnc1C=Nc1ccccc1.[OH3+]	SW-620 colon	> 100 µM
C=CCCCN1CCCCC1=S	SW-620 colon	> 100 µM
COc1c(C)c(OC)c(C(=O)CC(C)C)c(OC)c1C	SW-620 colon	> 100 µM
CSc1nc(NC2OCC(OC(C)=O)C(OC(C)=O)C2OC(C)=O)c2c(n1)OCC2=O (stereo not given)	SW-620 colon	> 100 µM
O=S1(=O)c2ccccc2N2C(c3ccccc3)=NOC2(c2ccccc2)CC1c1ccc(Br)cc1 (stereo not given)	SW-620 colon	> 100 µM
FC(F)(F)c1cc(NC(=S)N2c3ccccc3-n3cccc3C2c2cccnc2)cc(C(F)(F)F)c1 (stereo not given)	SW-620 colon	19.6 µM
N#Cc1ccc([N+](=O)[O-])cc1NC(N)=S	SW-620 colon	> 100 µM
